system: LOX IMVI melanoma; assay: NCI-60 one-dose screen, 48 h (100 = growth as untreated, 0 = no growth, -100 = all killed); conditions: 10 µM unless noted
Compounds without any hit were thinned out: in the full panel of roughly 83,000, 20% have a hit. Activity calls are given as the source filed them. How the source made its calls: active means growth percent below 10; inactive means the rest.
MEASUREMENT_TYPE: growth

A selection of reference data follows.
Item under review: `COc1ccc(-n2nc(C)c3c(Nc4ccc(NC(=O)Nc5cccc(C(F)(F)F)c5)cc4)ncnc32)cc1` . Reported growth?
-81.9% (active)

Can you share its growth? I mean this molecule: `CC(=O)c1cc2c(N)c(C(=O)Nc3cccc4ccccc34)sc2nc1C`
41.1% (inactive)

// lookup growth for `C#CCOc1ccc2ncnc(N3CCN(C(=O)CCl)CC3)c2c1`
47.4% [8.25 µM] (inactive)

I would be grateful if you could share the reported growth for `O=C1/C(=C(/c2ccccc2)N2CCOCC2)Cc2ccccc21` .
-58.3% (active)

Okay, next one:
Look at this molecule and give its reported growth. CC(C)C[C@@H](NC(=O)[C@@H](Cc1ccccc1)NC(=O)c1cnccn1)B1Oc2ccc(C[C@H](NC(=O)[C@H](Cc3ccc4c(c3)OB([C@@H](CC(C)C)NC(=O)[C@@H](Cc3ccccc3)NC(=O)c3cnccn3)O4)NC(=O)[C@@H](N)CC3CCC4OB([C@@H](CC(C)C)NC(=O)[C@@H](CC5CCCCC5)NC(=O)C5CNCCN5)OC4C3)C(=O)NCCCC[C@@H]3NC(=O)[C@@H](Cc4ccccc4)NC(=O)[C@H](CC(=O)O)NC(=O)CNC(=O)[C@H](CCCNC(=N)N)NC3=O)cc2O1 (stereo not given in full)
-87.9% (active)
